Answer each item with its documented Cell viability.
Tested on: PC 12 cell lines
Assay: Radiation protection in vitro (CCK-8)
Type: cell-based, rat
Conditions: Dose 20 μM; radiation 8.0 Gy, PC 12; radiation group 50.22 ± 1.08; in % (unit assumed)
No unit in the answer, please; the number alone is enough.

Query Cell viability for COc1cc(/C=C/C(=O)CC(=O)/C=C/c2cc(C)c(O)cc2C)cc(CN(C)C)c1O [Compound 12a]
77.34

Query Cell viability for COc1cc(/C=C/C(=O)CC(=O)/C=C/c2ccc(O)c(Cl)c2)cc(CN(C)C)c1O [Compound 7]
69.98

Query Cell viability for COc1cc(/C=C/C(=O)CC(=O)/C=C/c2ccc(O)cc2)cc(CN(C)C)c1O [Compound 10a]
81.14

Query Cell viability for COc1cc(/C=C/C(=O)CC(=O)/C=C/c2ccc(OC)c(OC)c2OC)cc(CN(C)C)c1O [Compound 6]
83.08

* * *

Answer each item with its documented solubility.
Experiment: Aqueous solubility determination by UV spectrophotometer
Format: physicochemical
Conditions: water, thermodynamic from solid, saturated solution concentration
A number alone suffices; assume mg/mL.

Query solubility for COc1ccc(/C=C/C(=O)CC(=O)/C=C/c2cc(CN(C)C)c(O)c(OC)c2)cc1OC
118

Query solubility for COc1cc(/C=C/C(=O)CC(=O)/C=C/c2ccc(O)cc2)cc(CN(C)C)c1O [Compound 10a]
335

Query solubility for COc1cc(/C=C/C(=O)CC(=O)/C=C/c2cc(OC)c(O)c(OC)c2)cc(CN(C)C)c1O
148

Query solubility for COc1cc(/C=C/C(=O)CC(=O)/C=C/c2ccc(O)cc2C)cc(CN(C)C)c1O
255
